Listed below are molecules with pKi for D(4) dopamine receptor (Homo sapiens, UniProt P21917), each taken from published literature.
# Assayed system: D(4) dopamine receptor (Homo sapiens, UniProt P21917)
# Sequence (P21917 whole entry): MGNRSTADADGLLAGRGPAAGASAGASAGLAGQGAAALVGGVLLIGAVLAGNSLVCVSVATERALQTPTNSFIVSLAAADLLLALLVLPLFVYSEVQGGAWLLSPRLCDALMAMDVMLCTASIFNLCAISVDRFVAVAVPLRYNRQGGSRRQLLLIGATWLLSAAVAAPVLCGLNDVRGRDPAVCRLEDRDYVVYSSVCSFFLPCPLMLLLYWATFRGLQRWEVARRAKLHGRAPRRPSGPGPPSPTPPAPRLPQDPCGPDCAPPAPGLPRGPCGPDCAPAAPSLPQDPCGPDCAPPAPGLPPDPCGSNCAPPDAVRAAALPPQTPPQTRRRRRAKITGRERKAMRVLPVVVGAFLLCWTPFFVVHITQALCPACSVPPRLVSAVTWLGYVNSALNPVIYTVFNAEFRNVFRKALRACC
pKi: −log10 of the molar value.
Measured endpoint: pKi

1) COc1cc(NC(=O)C2CCC2)c(Cl)cc1C(=O)N[C@H]1CCN(Cc2ccccc2)C1 ... 8.28
2) COc1ccccc1N1CCN(CCCCn2cc(-c3ccc4c(c3)Cc3ccccc3-4)nn2)CC1 ... 6.23
3) COc1c(C(=O)N[C@H]2CN(Cc3ccccc3)C[C@H]2C)cc(Br)c2ccccc12 (stereo in doubt) ... 7.57
4) O=C([C@H]1C[C@H](O)CN1c1ccc(Cl)cc1)N1CC2COCC(C1)N2Cc1ccc(Cl)cc1 ... 5.00
5) Cc1nn2c(-c3ccccc3)cccc2c1CN1CCN(c2ccc(Cl)cc2)CC1 ... 7.43

1. CCN(CCNCc1ccc2ccc(=O)oc2c1)c1ccccc1
2. CCC[C@H]1CN(Cc2ccccc2)C[C@@H]1CNC(=O)c1cc(Cl)c(NC)cc1OC
Problem: Select the item with the higher value of pKi from the options 1 and 2 listed. Bench note: the answer is the label of the chosen record.
Solution: 2
(2: 6.00, 1: 5.57)

a. COC(=O)[C@@H]1Cc2ccccc2N1C(=O)CN1CCN(Cc2ccc(Cl)cc2)CC1
b. O=C(NC1CCN(Cc2ccc(Cl)cc2)CC1)c1cccc2ccccc12
c. COc1cc(NC(=O)c2ccccc2)c(Cl)cc1C(=O)N[C@H]1CCN(Cc2ccccc2)C1
d. COc1cc(CCNC[C@@H](O)c2ccc(O)c(O)c2)ccc1OCCCc1ccccc1
Problem: Number of molecules to sort: 4. Sort criterion: pKi, ascending. Answer format: list of labels, ordered as asked.
Solution: d, c, b, a
(d: 6.00, c: 7.06, b: 7.37, a: 8.30)

I. OCc1ccc2c(CN3CCN(c4ccc(Cl)cc4)CC3)cnn2c1
II. COc1cc(N)c(Cl)cc1C(=O)NC[C@H]1CCN(Cc2ccccc2)C1
Problem: // task: argmin of pKi over [ I , II ] Bench note: the answer is the label of the chosen record.
Solution: II

P. O=c1ccc2c(N3CCN(CCCCOc4ccn5nccc5c4)CC3)ccc(O)c2[nH]1
Q. c1c[nH]c2nc(CN3CCc4ccccc4C3)cc-2c1
Problem: Which numeric pKi is bigger, that of P or that of Q ? Label of pick, please.
Solution: P

I. CCOc1ccccc1CC1CN(Cc2ccc(Cl)cc2)CCCO1 (configuration not stated)
II. Fc1cc(COC2CCN(Cc3ccc4[nH]ncc4c3)CC2)ccc1Cl
Problem: Please choose the item with the lower pKi value from this pair: I and II Return value: the label identifying the chosen record.
Solution: II

A. Cn1c(N2CCCC2)nc2c(CN3CCN(c4ccccc4)CC3)c[nH]c2c1=O
B. Fc1ccc(CN2CCOC(CCc3ccccc3)C2)cc1 (racemic)
C. Fc1ccc(COC2CCN(Cc3cc4ccc(Cl)cc4[nH]3)CC2)cc1F
D. O=c1ccc2ccc(CN3CCN(c4ccc(Cl)cc4)CC3)cc2o1
Problem: Rank the 4 molecules: largest pKi first, smallest last. Write the labels in rank order as requested.
Solution: A, D, C, B

P. Oc1ccc(OCCNCCCOc2ccccc2)cc1
Q. COc1c(C(=O)N[C@@H]2CCN(Cc3ccccc3)C2)cc(Br)c2ccccc12 (stereo in doubt; 3g)
R. Cc1cc2nc(C)c(CN3CCN(c4ccc(F)cc4)CC3)n2c(C)n1
S. COc1ccccc1N1CCN(CCCCNC(=O)c2cc3cc(I)ccc3o2)CC1
T. Fc1cc(COC2CCN(Cc3cn4ccccc4n3)CC2)ccc1Cl
Problem: List these items ordered by pKi, big to small. # format: label list in the order the request specifies
Solution: P, Q, S, T, R

P. O=C(NC1CCN(Cc2cccc(Br)c2)CC1)c1cccc2ccccc12
Q. FC1(c2ccc(Cl)cc2)CCN(Cc2c[nH]c3ccccc23)CC1
R. Fc1ccc(OC[C@@H]2CC[C@H]3CN(c4ncc(F)cn4)CCN3C2)cc1
S. COc1ccccc1N1CCN(Cc2cn(CCOCCOCCF)nn2)CC1
Problem: Parameters: sort_field (pKi), sort_dir (desc). Write out the labels following the order that was asked for.
Solution: R, P, S, Q

---

Reported Ki on D(4) dopamine receptor (Homo sapiens, UniProt P21917) for assorted molecules, compiled from publications.
# Assayed system: D(4) dopamine receptor (Homo sapiens, UniProt P21917)
# Sequence (P21917 whole entry): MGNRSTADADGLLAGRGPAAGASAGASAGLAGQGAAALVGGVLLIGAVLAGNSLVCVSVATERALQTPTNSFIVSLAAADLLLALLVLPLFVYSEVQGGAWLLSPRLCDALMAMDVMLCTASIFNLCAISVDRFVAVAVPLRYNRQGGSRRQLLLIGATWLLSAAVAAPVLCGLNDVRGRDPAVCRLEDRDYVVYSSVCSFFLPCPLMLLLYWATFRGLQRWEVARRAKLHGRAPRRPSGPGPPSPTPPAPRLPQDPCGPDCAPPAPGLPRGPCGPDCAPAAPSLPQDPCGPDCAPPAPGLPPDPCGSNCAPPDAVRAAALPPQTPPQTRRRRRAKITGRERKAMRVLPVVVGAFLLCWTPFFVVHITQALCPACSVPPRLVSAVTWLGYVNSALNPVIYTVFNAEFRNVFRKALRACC
Measured endpoint: Ki (nM)

1) COc1ccccc1N1CCN(CC(O)CCNC(=O)c2cc3cc(I)ccc3[nH]2)CC1 (stereo unspecified) ... 455
2) O=c1ccc2ccc(NCCNc3ccccc3)cc2o1 ... 5.8
3) COc1ccccc1N1CCN(CCCCc2cn(-c3cccc4cnccc34)nn2)CC1 ... 875
4) COc1ccccc1N1CCCN(CCCCNC(=O)c2cc3ccccc3o2)CC1 ... 429
5) O=C1CCc2ccc(OCCCCN3CCCN(c4ccc(O)c5[nH]c(=O)ccc45)CC3)cc2N1 ... 75
6) Cn1c(N2CCOCC2)nc2c(CN3CCN(c4ccccc4)CC3)c[nH]c2c1=O ... 25
7) COc1ccccc1N1CCN(CCCCN2CCc3cc(-c4ccccc4)ccc3C2=O)CC1 ... 3.4
8) c1ccc(CC[C@@H]2CN(Cc3nc4ccccc4[nH]3)CCO2)cc1 ... 70
9) O=C(NCCCN1CCN(c2ccc(Br)cc2)CC1)NN(Cc1ccc(F)cc1)c1ccccc1 ... 46
10) O=C(NC1CCN(Cc2cccc(C(F)(F)F)c2)CC1)c1ccc2ccccc2c1 ... 103

a. C=CCN(NC(=O)NCCCN1CCN(c2ccccc2OC)CC1)c1ccc(OC)cc1
b. OC1(c2ccc(-c3ccccc3)cc2)CCN(Cc2c[nH]c3ccccc23)CC1
Problem: I'd appreciate it if you could identify which of a and b has the greater Ki. Answer format: the label of the selected item.
Solution: b

---

Assembled from different publications: Ki for UniProtKB P21917.
Measured endpoint: Ki (µM)

Example entries begin here.
1. N#CC(CCNCCCCC(=O)N1CCN(c2cccc(Cl)c2Cl)CC1)(c1ccccc1)c1ccccc1 ... 3.93
2. COc1ccccc1N1CCN(Cc2cn3c(-n4cccn4)cccc3n2)CC1 ... 0.00094
3. Cc1c(-c2ccccc2)cnn1C1CCN(Cc2cccc(C#N)c2)CC1 ... 0.0052
4. Cc1c(C2CCN(Cc3ccccc3)CC2)n[nH]c1-c1ccc(Cl)cc1 ... 0.0016

I. CCc1cc(Cl)c(OC)c(N2CCN(CC(O)CCNC(=O)c3cc4ccccc4[nH]3)CC2)c1 (configuration not stated)
II. O=C(NCN1CCN(c2ccccc2Cl)CC1)c1ccc(Cl)cc1
III. COc1ccccc1N1CCN(Cc2cc(CO)c3cccccc2-3)CC1
IV. Cc1cc(CO[C@H]2CCCN(Cc3ncn4ccccc34)C2)ccc1F
V. Cn1c(N2CCCC2)nc2c(CN3CCN(c4ccccn4)CC3)c[nH]c2c1=O
Problem: Sort by Ki, descending. List each label, following the requested order.
Solution: I, IV, II, V, III

A. OCc1cccn2ncc(CN3CCN(c4ccc(Cl)cc4)CC3)c12
B. COc1ccc(OCCNCCCOc2ccccc2)cc1
Problem: Compare the recorded Ki of A and B ; state which is larger. Reply with the label of the item you choose.
Solution: A

P. c1ccc(CN2CCC(n3cnc(-c4ccccc4)c3)CC2)cc1
Q. OCc1ccc(N2CCN(CC[C@@H](O)c3ccc(Cl)cc3)CC2)cc1Cl
Problem: Given the listed items, does P or Q have the lesser reported Ki? To answer, give the label that identifies your chosen option.
Solution: P
(P: 0.04 µM, Q: 0.0814 µM)
